Tested on: HepG2
method: cytotoxicity call (relative viability < 0.9)
particulars: 10 µM
Hit rate of the full screen: of about 39,000 compounds, about 3,300 (8.5%) were called active. The entries come from a sample that favours actives as a whole.
experimentalEndpoint: cytotoxicity call

Please review the following examples before continuing.
CN1CCN(C(=O)Cn2cc(-c3ccc(C(=O)NO)cc3)nn2)CC1; inactive
Cc1ccc(S(=O)(=O)Nc2ccc3c(c2)C(=O)N([C@H](C)CO)C[C@H](C)[C@@H](CN(C)S(=O)(=O)c2ccc(C)cc2)OCCCC[C@H](C)O3)cc1; inactive
C[C@@H]1CN([C@@H](C)CO)C(=O)c2cc(N(C)C)ccc2O[C@@H](C)CCCCO[C@H]1CN(C)Cc1ccc(C(F)(F)F)cc1; inactive
Cc1ccc(S(=O)(=O)Nc2ccc3c(c2)C(=O)N([C@H](C)CO)C[C@H](C)[C@@H](CN(C)S(=O)(=O)c2ccc(C)cc2)OCCCC[C@@H](C)O3)cc1; inactive
C[C@H]1CN([C@@H](C)CO)C(=O)c2cc(C#Cc3ccccc3F)cnc2O[C@@H]1CN(C)C(=O)c1ccc2c(c1)OCO2; inactive

## Input Which measured cytotoxicity call value corresponds to CNC(=O)C(=O)NC[C@H]1OCCN1S(=O)(=O)c1ccccc1 ?
## Output inactive

## Input Record request: cytotoxicity call value, item Cc1ccc(S(=O)(=O)Nc2ccc3c(c2)C(=O)N([C@H](C)CO)C[C@@H](C)[C@@H](CN(C)S(=O)(=O)c2ccc(C)cc2)OCCCC[C@@H](C)O3)cc1
## Output inactive

## Input Requested field: cytotoxicity call. Item: Nc1ccn([C@@H]2CS[C@H](CO)O2)c(=O)n1
## Output inactive
